# Test system: LPS-induced microglia activation
# protocol: Image-based assay of LPS-induced microglia activation (HTS and dose response)
# Type: cell-based, rat
# stated.conditions: Rattus norvegicus, Microglia, dose response, LPS-induced microglia activation; read-out: LPS IC50

>  <compound>
C[C@H](N)[C@H](O)c1ccc(O)c(O)c1 [Levonordefrin, reference compound]

>  <IC50>
> 20 µM

$$$$
>  <compound>
CC1(C)O[C@@H]2C[C@H]3[C@@H]4C[C@H](F)C5=CC(=O)C=C[C@]5(C)[C@H]4[C@@H](O)C[C@]3(C)[C@]2(C(=O)CO)O1 [Flunisolide, reference compound]

>  <IC50>
< 0.001 µM

$$$$
>  <compound>
O=C1NC(=O)C(c2ccccc2)(c2ccccc2)N1 [Phenytoin sodium, reference compound]

>  <IC50>
> 20 µM

$$$$
